# assay_remarks: Tissue distribution in cynomolgus monkeys
# Assay type: in vivo, cynomolgus monkeys (Macaca fascicularis)
# measurement_context: cynomolgus monkey, liver, oral, 3 mg/kg/day
property_measured: concentration at 6 weeks after the last dose

For the molecule shown here, Cc1cn2nc(-c3cc(=O)n4cc(N5CCNC6(CC6)C5)ccc4n3)cc(C)c2n1 [risdiplam] , give the reported concentration at 6 weeks after the last dose.
~4 ng/g

----------
# assay_remarks: Tissue distribution in cynomolgus monkeys
# Assay type: in vivo, cynomolgus monkeys (Macaca fascicularis)
# measurement_context: cynomolgus monkey, kidney, oral, 3 mg/kg/day
property_measured: concentration at 6 weeks after the last dose

// lookup concentration at 6 weeks after the last dose for Cc1cn2nc(-c3cc(=O)n4cc(N5CCNC6(CC6)C5)ccc4n3)cc(C)c2n1
~4 ng/g

----------
# assay_remarks: Tissue distribution in cynomolgus monkeys
# Assay type: in vivo, cynomolgus monkeys (Macaca fascicularis)
# measurement_context: cynomolgus monkey, bone marrow / plasma, oral, 3 mg/kg/day
property_measured: Kp at 7 days

Can you share its Kp at 7 days? I mean this compound: Cc1cn2nc(-c3cc(=O)n4cc(N5CCNC6(CC6)C5)ccc4n3)cc(C)c2n1
~5

----------
# assay_remarks: Tissue distribution in cynomolgus monkeys
# Type: in vivo, cynomolgus monkeys (Macaca fascicularis)
# measurement_context: cynomolgus monkey, spleen / plasma, oral, 3 mg/kg/day
property_measured: Kp at 7 days

I'd like to know its Kp at 7 days. The compound in question is Cc1cn2nc(-c3cc(=O)n4cc(N5CCNC6(CC6)C5)ccc4n3)cc(C)c2n1
~5

----------
# assay_remarks: Plasma, brain and CSF drug levels in rats
# Format: in vivo
# measurement_context: Wistar, rat, brain / total plasma, po, 7.5 mg/kg/day
property_measured: Kp at 90 days
Returns: the value as a bare number; no unit string appended.

Please give the measured Kp at 90 days for this molecule: Cc1cn2nc(-c3cc(=O)n4cc(N5CCNC6(CC6)C5)ccc4n3)cc(C)c2n1 [risdiplam]
0.92

----------
# assay_remarks: Tissue distribution in cynomolgus monkeys
# Type: in vivo, cynomolgus monkeys (Macaca fascicularis)
# measurement_context: cynomolgus monkey, CSF, oral, 3 mg/kg/day
property_measured: concentration at 7 days (ng/mL)
The response must be a number in ng/mL with no trailing unit.

Sample Cc1cn2nc(-c3cc(=O)n4cc(N5CCNC6(CC6)C5)ccc4n3)cc(C)c2n1 [risdiplam] — what was its concentration at 7 days?
53.5

----------
# assay_remarks: Tissue distribution in cynomolgus monkeys
# Format: in vivo, cynomolgus monkeys (Macaca fascicularis)
# measurement_context: cynomolgus monkey, brain, oral, 3 mg/kg/day
property_measured: concentration at 7 days (ng/g)
Report only the number, with the unit ng/g understood.

Would you kindly share the measured concentration at 7 days for Cc1cn2nc(-c3cc(=O)n4cc(N5CCNC6(CC6)C5)ccc4n3)cc(C)c2n1 ?
783

----------
# assay_remarks: Tissue distribution in cynomolgus monkeys
# Format: in vivo, cynomolgus monkeys (Macaca fascicularis)
# measurement_context: cynomolgus monkey, plasma (unbound), oral, 3 mg/kg/day
property_measured: concentration at 7 days
Units required after the number.

Quick one: concentration at 7 days of Cc1cn2nc(-c3cc(=O)n4cc(N5CCNC6(CC6)C5)ccc4n3)cc(C)c2n1 ?
119 ng/mL

----------
# assay_remarks: Tissue distribution in cynomolgus monkeys
# Format: in vivo, cynomolgus monkeys (Macaca fascicularis)
# measurement_context: cynomolgus monkey, spleen, oral, 3 mg/kg/day
property_measured: concentration at 6 weeks after the last dose

Would you kindly share the measured concentration at 6 weeks after the last dose for Cc1cn2nc(-c3cc(=O)n4cc(N5CCNC6(CC6)C5)ccc4n3)cc(C)c2n1 ?
< 1 ng/g
